Reference source for all entries: PubChem BioAssay (NCI)

- measurement_description: NCI Yeast Anticancer Drug Screen. Data for the bub3 strain (AID 167)
- run_parameters: S. cerevisiae bub3 mutant strain, at 3.7 µM, active compounds read high
Compounds without any hit were thinned out: in the full panel of roughly 79,000, 15% have a hit.
Rule: growth inhibition under 10% gives no (0), otherwise yes (1).

Q: Quick check, growth inhibition >= 10%? `O=C(/C(=C/c1ccc(O)cc1)c1ccccc1)c1ccccc1`
Result: yes (1)

Q: Given the entry `CSc1nc(-c2ccccc2)nc(=[N+]2CCOCC2)s1` , answer whether its growth inhibition meets or surpasses 10%.
Result: no (0)

Q: Say whether `CC(C)OP(=O)(OC(C)C)C(=NCCO)NNc1ccc([N+](=O)[O-])cc1` shows growth inhibition of 10% or more.
Result: yes (1)

Q: Evaluate CC12CCC(CC(=O)/C1=C(/Br)I)C2(C)C (stereo unspecified) : growth inhibition at minimum 10%?
Result: yes (1)

Q: Check this compound for growth inhibition at or above 10%: `S=C(NCc1ccccn1)N/N=C/c1ccccn1`
Result: yes (1)

Q: Could you please find out whether O=C(Cc1ccccc1)NN1C(=O)C(Cl)C1c1cc(Br)cc(Br)c1O (stereo unspecified) has growth inhibition that meets 10% or exceeds it?
Result: yes (1)

Q: Item CC(=O)CC(c1ccccc1)c1c(O)c2ccccc2oc1=O (stereo unspecified) with growth inhibition of 10% or above?
Result: yes (1)

Q: Hello, I need to know if `O=S(=O)(NNc1ccccc1)c1ccccc1` has measured growth inhibition not below 10%. Thanks!
Result: no (0)

Q: Item `CCCCN(CCCC)c1ccc(N=Nc2ccc(S(=O)(=O)O)cc2)cc1` with growth inhibition of 10% or above?
Result: yes (1)

Q: Item C=CC(C)(C)N1C(=O)C(C(C)=O)=C(O)C1Cc1c[nH]c2ccccc12 (stereo unspecified) with growth inhibition of 10% or above?
Result: no (0)

Q: Has `CCCCN(CCC#N)c1ccc(/C=C/c2ccnc3ccccc23)cc1` a recorded growth inhibition greater than or equal to 10%?
Result: no (0)

----------
- measurement_description: NCI Yeast Anticancer Drug Screen. Data for the sgs1 strain (AID 173);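 further: 0% = growth of vehicle-only control cultures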
- run_parameters: S. cerevisiae sgs1 mutant, at 11.0 µM, active compounds read high
- Protocol: Growth inhibition of yeast strains with defined genetic alterations is measured as a screen for potential anti-cancer activity. Selected strains with alterations in DNA damage repair or cell cycle control were exposed to compounds and growth inhibition was measured relative to vehicle treated controls. The strain used in this assay is sgs1
About 79,000 compounds went through this panel and 15% of them were active in at least one assay; those are over-represented in the sample as a whole.
# binarize growth inhibition: threshold 20% inclusive, high side class 1, low side class 0

Q: Could you please find out whether O=C(NCCCCN1CC2CCCC2C1)C(C1CCCCC1)C1CCCCC1 (stereo not given) has growth inhibition that meets 20% or exceeds it?
Result: class 1

Q: Would you say `COc1ccc2nc3cccc([N+](=O)[O-])c3c(NCCNCCO)c2c1` shows growth inhibition at minimum 20%?
Result: class 1

Q: Given the entry `COC(=O)/C(C#N)=C\NC(=S)C(N)=S` , answer whether its growth inhibition meets or surpasses 20%.
Result: class 1

Q: Quick check: does C=CC(C)(C)N1C(=O)C(C(C)=O)=C(O)C1Cc1c[nH]c2ccccc12 (stereo not given) have growth inhibition greater than or equal to 20%?
Result: class 0

Q: // inclusive: growth inhibition at least 20%? input: O=C(NNc1ccccc1)C(CCCCNS(=O)(=O)Cc1ccccc1)NS(=O)(=O)Cc1ccccc1 (stereo not given)
Result: class 1

----------
- measurement_description: NCI Yeast Anticancer Drug Screen. Data for the wt2 strain (AID 169);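 further: 0% = growth of vehicle-treated yeast cultures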
- run_parameters: S. cerevisiae wt2 strain growth inhibition; at 11.0 µM; active compounds read high
The panel holds about 79,000 compounds, 15% with a hit somewhere; the sample as a whole holds those more often.
Please provide measured growth inhibition for the entries that follow.
Response body: numeric value in %, unit text excluded.

Q: Give recorded growth inhibition. `CNCC(C)CNC`
Result: -28

Q: Indicate its recorded growth inhibition; the compound in question is `CCS(=O)(=O)Nc1ccc(Nc2c3ccccc3nc3ccccc23)c(OC)c1`
Result: -42

Q: Identify the reported growth inhibition for the following entry. CC1CCC(C2=CSC3CCCCC3N2)CC1 (stereo not given)
Result: -4

Q: Identify growth inhibition associated with the compound `COc1cc([C@@H]2c3cc4c(cc3[C@@H](NC(=O)NO)[C@H]3COC(=O)[C@H]23)OCO4)cc(OC)c1O`
Result: 3

Q: Query growth inhibition for `O=C(/C(=C/c1ccc(O)cc1)c1ccccc1)c1ccccc1`
Result: 33

Q: Determine its reported growth inhibition: `CC(C)=CCC/C(C)=C/CN1C(=O)C=CC1=O`
Result: 100

Q: Report measured growth inhibition; entry is NC(CS)C(=O)NCCNc1ccc(NCCNC(=O)C(N)CS)c2c1C(=O)c1c(O)ccc(O)c1C2=O (stereo not given)
Result: -63

Q: Note growth inhibition for the compound shown: `CCC(C)(C)c1ccc(Oc2ccccc2)c(N)c1`
Result: 97

Q: Fill in reported growth inhibition for this entry: `CCCCS/C(=C(/C#N)C(N)=O)c1cc2c([nH]1)CCCC2`
Result: -16

Q: Please report the measured growth inhibition for `C[n+]1c(/C=C/c2ccc(/C=N/NC(=O)c3ccc(C(=O)N/N=C/c4ccc(/C=C/c5cn6ccccc6[n+]5C)cc4)cc3)cc2)cn2ccccc21`
Result: 96

Q: Indicate its recorded growth inhibition; the compound in question is `CC1(C)OC(=O)C(=Cc2ccc([N+](=O)[O-])s2)C(=O)O1`
Result: -7

Q: Given `O=C(NC(N1CCN(c2cc3c(cc2F)c(=O)c(C(=O)O)cn3C2CC2)CC1)(C(F)(F)F)C(F)(F)F)c1ccccc1` , respond with its growth inhibition.
Result: -1

Q: In one line, give reported growth inhibition of the entry `O=C(O)C(=Cc1ccc(-c2ccccc2)cc1)C(=O)O` .
Result: 17

Q: Give reported growth inhibition value for `O=[N+]([O-])c1cccc2nc3ccccc3c(NCCCN3CCCCC3)c12`
Result: 89

Q: Indicate its recorded growth inhibition; the compound in question is OC(Cc1cccc2ccccc12)CN1CCC(c2ccccc2)CC1 (stereo not given)
Result: 72

Q: Give growth inhibition for `Nc1cc2c(cc1N)-c1ccccc1C2=O`
Result: -2

Q: Give recorded growth inhibition. `O=C1C=C(NCCc2cc(Br)c(O)c(Br)c2)C(=O)c2ncccc21`
Result: 26

Q: Name the recorded growth inhibition of the compound listed here: `CCCCCCCCNCCCCCCCC`
Result: 76

Q: Return reported growth inhibition. Input compound: `O=Cc1ccccc1C=O`
Result: -15

Q: Given `CCCN=Cc1cc(Cc2ccc(O)c(C=NCCC)c2)ccc1O` , respond with its growth inhibition.
Result: 99

Q: Tell me measured growth inhibition for `CCCCCCNCCCNc1c2cc(OC)ccc2nc2cccc([N+](=O)[O-])c12` please.
Result: 12

Q: Give the value of growth inhibition reported for the following: `CCCNCC(=O)O[C@]1(CC)C(=O)OCc2c1cc1n(c2=O)Cc2cc3ccccc3nc2-1`
Result: -19

Q: Tell me its growth inhibition given `COc1ccc(C(=O)/C=C\c2ccc(Cl)c(Cl)c2)cc1` as the entry.
Result: 12

Q: State, in one line, measured growth inhibition of CC(C)[Si]1(C(C)C)OCC2OC(n3cnc4c(N)ncnc43)C(N)C2O[Si](C(C)C)(C(C)C)O1 (stereo not given)
Result: 93

Q: Give recorded growth inhibition. `CC1=NN(C(=O)c2ccccc2O)C(=O)/C1=C/c1ccco1`
Result: 80

Q: For `CCOP(=O)(OCC)/C(C#N)=C/c1cccc(Oc2ccccc2)c1` , write its growth inhibition.
Result: 38

Q: Given `CC(=O)CCC1=C(C)C(=O)C(=O)C(C)=C1O` , respond with its growth inhibition.
Result: -1

Q: Give growth inhibition for `COc1cc(NCCCCNCC(C)(C)C)c2ncccc2c1`
Result: 3

Q: Fill in growth inhibition for record OC(CC(O)(C(F)(F)F)C(F)(F)F)c1ccc(C(O)CC(O)(C(F)(F)F)C(F)(F)F)cc1 (stereo not given)
Result: 98

Q: Specify measured growth inhibition for NC(=S)N/N=C1\c2ccccc2CCC1CCC1(O)CCc2ccccc2C1=O (stereo not given) .
Result: 13

Q: Return growth inhibition for the following compound: `CN(C)CCNc1ccc2ncn3c4ccc(O)cc4c(=O)c1c23`
Result: -2

Q: Consider the compound `O=C1c2ccccc2-c2ccc(N=Cc3ccccc3)cc21` and give its recorded growth inhibition.
Result: 18

Q: Tell me measured growth inhibition for `Nc1ccc(S(=O)(=O)Nc2nc3c(c(=O)[nH]2)CCCC3)cc1` please.
Result: 99

Q: For the compound `O=C1C=C(Br)C(=O)c2ccccc21` , give its reported growth inhibition.
Result: 90

Q: State, in one line, measured growth inhibition of `CC1=COC2=C(C)C(=O)C(=O)c3c(C)ccc1c32`
Result: -19

Q: Consider the compound O=C1C(CCSc2ccccc2)C(=O)N(c2ccccc2)C1c1ccccc1 (stereo not given) . State its measured growth inhibition.
Result: 22

Q: Output growth inhibition of `CC(=O)O/N=C1C=C/C(=C(/C#N)c2ccccc2)C=C/1C`
Result: 65

Q: Retrieve growth inhibition measured for `Nc1cc2ccccc2cc1N` and print it.
Result: -25

Q: Entry `CC(C)(N=Nc1ccc(Cl)cc1)[N+](=O)[O-]` needs its growth inhibition filled in; supply it.
Result: 88

Q: Supply recorded growth inhibition for `Cc1ccc(S(=O)(=O)N/N=C/C(Br)=C(/Br)C(=O)O)cc1` here.
Result: 48

Q: Answer with the recorded growth inhibition for the compound listed here: `CC1(C)CC(=O)C(/C=N/c2nc(-c3ccc(Br)cc3)cs2)=C(O)C1`
Result: 29

Q: Look up growth inhibition of `CCOc1ccc(N)c(S)c1` and report it.
Result: 3

Q: Quickly give me recorded growth inhibition for `CC(=O)Oc1ccc2c(c1)Cc1cc(N3C(=O)C=CC3=O)ccc1-2`
Result: 46

Q: Please report growth inhibition for the following compound: `CN(C)CCCn1c2c3ccccc3ccc2c2oc(=O)c3ccccc3c21`
Result: 50

Q: Answer with the recorded growth inhibition of O=C1CC(C(O)(C(F)(F)F)C(F)(F)Cl)CCC1C(O)(C(F)(F)F)C(F)(F)Cl (stereo not given) only.
Result: 84
